biological target: P2X7 (Homo sapiens (Human), UniProt Q99572); assay: P2X7 antagonism in human PBMCs (LPS + Bz-ATP induced IL-1β release, ELISA); format: cell-based; conditions: 10 μM compound, LPS 30 ng/ml + 0.5 mM Bz-ATP
Sequence (Q99572 whole entry): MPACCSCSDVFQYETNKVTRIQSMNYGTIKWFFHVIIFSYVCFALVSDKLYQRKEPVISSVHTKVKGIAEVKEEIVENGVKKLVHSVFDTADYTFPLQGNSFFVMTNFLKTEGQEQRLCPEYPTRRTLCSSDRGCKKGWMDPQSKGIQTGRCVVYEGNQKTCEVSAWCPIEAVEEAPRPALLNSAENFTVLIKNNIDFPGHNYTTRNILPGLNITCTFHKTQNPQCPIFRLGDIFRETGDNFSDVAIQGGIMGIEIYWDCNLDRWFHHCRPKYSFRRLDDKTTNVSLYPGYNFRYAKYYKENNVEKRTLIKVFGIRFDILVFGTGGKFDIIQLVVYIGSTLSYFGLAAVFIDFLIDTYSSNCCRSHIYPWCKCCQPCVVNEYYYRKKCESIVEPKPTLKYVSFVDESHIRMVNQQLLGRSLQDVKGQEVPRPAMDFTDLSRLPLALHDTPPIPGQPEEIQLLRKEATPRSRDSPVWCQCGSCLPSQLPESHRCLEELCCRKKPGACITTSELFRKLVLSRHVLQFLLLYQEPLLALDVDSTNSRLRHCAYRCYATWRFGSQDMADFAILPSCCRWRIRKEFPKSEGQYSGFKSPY
measured property: PBMC 10 μM (% control)
One number for each entry, in % control.

For each listed entry, give its PBMC 10 μM (% control).
1. Cc1cc(C)nc(-n2nnc3c2CCN(C(=O)c2cccc(C(F)(F)F)c2Cl)C3C)n1 (stereo not drawn)
2. Cc1nc(-n2nnc3c2CCN(C(=O)c2cccc(C(F)(F)F)c2Cl)C3C)ncc1F (single isomer, unassigned)

output:
1. −2.6
2. 2.5
